Target: T1, aggregated A-beta(1-40) peptide (BAA) (human)
T1 construct: also called A-beta peptide aggregates
Assay: BAA ELISA

BINDER	EC50
ABII42F5 (VHH) VHH: EVQLVESGGGLVQAGDSLRLSCTASGRTFTDYNIGWFCQAPGKEREFVAAISGSGGSTYYADSAKGRFTISRDNAKNTVYLQMNSLKPEDTAVYACAAAQRRLAVNVDTSYNVWGQGTQVTVSS	20 nM
ABII42B10 (VHH) VHH: EVQLVESGGGLVQRGGSLRLSCAASGRTFSNLNMGWFRQAPGKEREFQAAISRSGGTTYYADSVKGRFTISRDNAKSTVFLQMNSLKPEDTAVYYCAAASPGGPINYGRAYDSWGQGTQVTVSS	2.1 nM
Fab fragment of monoclonal antibody m266 (Fab, V domains shown, also called Fab266; m266Fab) VH: EVKLVESGGGLVQPGGSLKLSCAVSGFTFSRYSMSWVRQTPEKRLELVAQINSVGNSTYYPDTVKGRFTISRDNAEYTLSLQMSGLRSDDTATYYCASGDYWGQGTTLTVSS VL: DVVMTQTPLSLPVSLGDQASISCRSSQSLIYSDGNAYLHWFLQKPGQSPKLLIYKVSNRFSGVPDRFSGSGSGTDFTLKISRVETEDLGVYFCSQSTHVPWTFGGGTKLEIK	1.8 nM
ABII60G11 (VHH) VHH: EVQLVESGGGSEQAGGSLRLSCATSGRAFSVYAWFRQAPGKERTFVAAVAWVGGSTFYSDSVKGRFTISRDNAKNTVFLHMNSLKPEDTAAYYCAARLYGGRWYNSPRVDDFEYWGQGTQVTVSS	6 nM
ABII42D4 (VHH, also called ABIIPMP42D4) VHH: EVQLVESGGGLVLAGGSLRLSCVHSGPTFSTDTMGWFRQAPGKEREFVAAVTWNSGRTNYADSVKGRFTVSRDNTRNAAYLQMSGLKDEDTAVYYCTAHRLVVGGTSVGDWRYWGQGTQVTVSS	0.9 nM
